# measurement_target: T1, Placenta Growth Factor (PlGF), human (human, UniProt P49763 21-149)
# T1 chain: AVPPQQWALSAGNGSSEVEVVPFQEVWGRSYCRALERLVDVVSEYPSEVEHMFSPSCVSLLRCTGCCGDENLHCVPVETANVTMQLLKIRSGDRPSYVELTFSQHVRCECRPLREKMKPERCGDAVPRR
# measurement_protocol: ELISA
endpoint_name: EC50
Please state the number and follow it with the unit.

# count of solved cases: 3
{"columns": ["binder", "EC50"],
 "data": [
  ["HC 10/SLC 5 (antibody) chain 1: GQGTLVTVSSASTKGPSVFPQPVLHQPPAMSSALGTTIRLTCTLRNDHDIGVYSVYWYQQRPGHPPRFLLRYFSQSDKSQGPQVPPRFSGSKDVARNRGYLSISELQPEDEAMYYCAMGARSRCWPRGFQSKHNSVTHVFGSGTQLTVLSQPKATPSVTLFPPSSEELQANKATLVCLMNDFYPGILTVTWKADGTPITQGVEMTTPSKQSNNKYAASSYLSLTPEQWRSRRSYSCQVMHEGSTVEKTVAPAECS chain 2: MSWAPVLLMLFVYCTGCGPQPVLHQPPAMSSALGTTIRLTCTLRNDHDIGVYSVYWYQQRPGHPPRFLLRYFSQSDKSQGPQVPPRFSGSKDVARNRGYLSISVTHVFGSGTQLTVLSQPKAQVQLVQ", "181 pM"],
  ["HC 8/SLC 8 (antibody) chain 1: GQGTLVTVSSASTKGPSVQPVLHQPPAMSSALGTTIRLTCTLRNDHDIGVYSVYWYQQRPGHPPRFLLRYFSQSDKSQGPQVPPRFSGSKDVARNRGYLSISELQPEDEAMYYCAMGARSRCWPRGFQSKHNSVTHVFGSGTQLTVLSQPKATPSVTLFPPSSEELQANKATLVCLMNDFYPGILTVTWKADGTPITQGVEMTTPSKQSNNKYAASSYLSLTPEQWRSRRSYSCQVMHEGSTVEKTVAPAECS chain 2: MSWAPVLLMLFVYCTGCGPQPVLHQPPAMSSALGTTIRLTCTLRNDHDIGVYSVYWYQQRPGHPPRFLLRYFSQSDKSQGPQVPPRFSGSKDVARNRGYLSISVTHVFGSGTQLTVLSQPKATPSQVQLVQ", "69 pM"],
  ["HC 7/SLC 2 (antibody) chain 1: GQGTLVTVSSASTKGPSQPVLHQPPAMSSALGTTIRLTCTLRNDHDIGVYSVYWYQQRPGHPPRFLLRYFSQSDKSQGPQVPPRFSGSKDVARNRGYLSISELQPEDEAMYYCAMGARSRCWPRGFQSKHNSVTHVFGSGTQLTVLSQPKATPSVTLFPPSSEELQANKATLVCLMNDFYPGILTVTWKADGTPITQGVEMTTPSKQSNNKYAASSYLSLTPEQWRSRRSYSCQVMHEGSTVEKTVAPAECS chain 2: MSWAPVLLMLFVYCTGCGPQPVLHQPPAMSSALGTTIRLTCTLRNDHDIGVYSVYWYQQRPGHPPRFLLRYFSQSDKSQGPQVPPRFSGSKDVARNRGYLSISVTHVFGSGTQLTVLSQQVQLVQ", "200 pM"]
]}

Query: Reported EC50, binder HC 4/SLC 9 (antibody) chain 1: GQGTLVTVSSASTKQPVLHQPPAMSSALGTTIRLTCTLRNDHDIGVYSVYWYQQRPGHPPRFLLRYFSQSDKSQGPQVPPRFSGSKDVARNRGYLSISELQPEDEAMYYCAMGARSRCWPRGFQSKHNSVTHVFGSGTQLTVLSQPKATPSVTLFPPSSEELQANKATLVCLMNDFYPGILTVTWKADGTPITQGVEMTTPSKQSNNKYAASSYLSLTPEQWRSRRSYSCQVMHEGSTVEKTVAPAECS chain 2: MSWAPVLLMLFVYCTGCGPQPVLHQPPAMSSALGTTIRLTCTLRNDHDIGVYSVYWYQQRPGHPPRFLLRYFSQSDKSQGPQVPPRFSGSKDVARNRGYLSISVTHVFGSGTQLTVLSQPKATPSVQVQLVQ : ____
Response: 101 pM
